experiment: in vitro; type: in vitro ADME; details: cells or culture medium
Ends that are not written are not given here.

{"Entry Sequence": "FFGKVLKLIRKIF [DASamP1]", "remaining at 168 h": "70%"}

---

experiment: in vitro; assay type: in vitro ADME; conditions: cells or culture medium
Ends that are not written are not given here.

{"Entry Sequence": "FFGKVLKLIRKIF [DASamP1]", "Quantity Unit": "%", "remaining at 504 h": 56}
